Hey, just so you know, these numbers are from patent US7132419B2.

# Test system: drug resistant human small cell lung carcinoma cell line H69/LX4 which overexpresses P-glycoprotein (Pgp)
# Test summary: Cytotoxicity, drug resistant H69/LX4 cell line (AlamarBlue)
# Assay type: cell-based
# Conditions: concentration required to give 50% cell kill; 5–6 days incubation
pIC50: −log10 of the molar value.
Property: pIC50

[
  {
    "Molecule": "COc1cccc2c1ccc1nc3cccc(C(=O)N[C@@H](CN(C)C)C(C)C)c3nc12",
    "Property": "pIC50",
    "Observed measurement": 7.70
  },
  {
    "Molecule": "CN(C)CCNc1nc2cc(O)ccc2c2c1C(=O)c1ccccc1-2 [TAS-103, reference compound]",
    "Property": "pIC50",
    "Observed measurement": 7.66
  },
  {
    "Molecule": "Br.CN(C)CCNC(=O)c1cccc2nc3ccc4c(O)cccc4c3nc12 [Compound 4, hydrobromide salt]",
    "Property": "pIC50",
    "Observed measurement": 7.32
  }
]

----------
Effective concentration range, Topoisomerase II values for the compounds below.
# System: topoisomerase II
# Test summary: Stabilisation of cleavable complexes, topoisomerase II
# Assay type: biochemical
# Conditions: range where an increase in cleavable complexes was observed relative to controls in the absence of drug
Property: Effective concentration range, Topoisomerase II

[
  {
    "Compound": "COc1cccc2c1ccc1nc3cccc(C(=O)NC(CN(C)C)C(C)O)c3nc12 (stereo not drawn)",
    "Observed measurement": "0.03 to 1.0 µM"
  },
  {
    "Compound": "Br.CN(C)CCNC(=O)c1cccc2nc3ccc4c(O)cccc4c3nc12",
    "Observed measurement": "0.1 to 3.0 µM"
  },
  {
    "Compound": "COc1cccc2c1ccc1nc3cccc(C(=O)NC(C)CN(C)C)c3nc12 (stereo not drawn)",
    "Observed measurement": "0.03 to 1.0 µM"
  },
  {
    "Compound": "COc1cccc2c1ccc1nc3cccc(C(=O)N[C@H](C)CN(C)C)c3nc12",
    "Observed measurement": "0.03 to 1.0 µM"
  },
  {
    "Compound": "COc1cccc2c1ccc1nc3cccc(C(=O)NCCN(C)C)c3nc12",
    "Observed measurement": "0.1 to 3.0 µM"
  },
  {
    "Compound": "CN(C)CCNc1nc2cc(O)ccc2c2c1C(=O)c1ccccc1-2 [TAS-103, reference compound]",
    "Observed measurement": "0.3 to 10.0 µM"
  }
]

----------
IC50 values for the molecules below.
# Test summary: Cytotoxicity, drug resistant COR-L23/R cell line (SRB assay)
# Format: cell-based, human
# Conditions: Homo sapiens, COR-L23/R; concentration required to give 50% cell kill; 5–6 days incubation

[
  {
    "Molecule": "COc1cccc2c1ccc1nc3cccc(C(=O)N[C@H](CO)CN(C)C)c3nc12",
    "Endpoint unit": "nM",
    "IC50": 12.4
  },
  {
    "Molecule": "CN(C)CCNC(=O)c1cccc2nc3ccc4c(OCC#N)cccc4c3nc12",
    "Endpoint unit": "nM",
    "IC50": 17.7
  },
  {
    "Molecule": "CN(C)CCNC(=O)c1c(O)ccc2nc3ccc4c(O)cccc4c3nc12",
    "Endpoint unit": "nM",
    "IC50": 44.4
  },
  {
    "Molecule": "COc1cccc2c1ccc1nc3cccc(C(=O)NCCN(C)C)c3nc12",
    "Endpoint unit": "nM",
    "IC50": 19.9
  },
  {
    "Molecule": "COc1cccc2c1ccc1nc3cccc(C(=O)N[C@H](C)CN(C)C)c3nc12",
    "Endpoint unit": "nM",
    "IC50": 8.9
  },
  {
    "Molecule": "COc1cc(C(=O)NCCN(C)C)c2nc3c(ccc4c(OC)cccc43)nc2c1",
    "Endpoint unit": "nM",
    "IC50": 3.8
  },
  {
    "Molecule": "COc1cccc2c1ccc1nc3cccc(C(=O)NC(CO)CN(C)C)c3nc12 (stereo not shown)",
    "Endpoint unit": "nM",
    "IC50": 17.2
  }
]

----------
# Test system: doxorubicin-resistant Jurkat human leukaemia cell line (JLD)
# Test summary: Cytotoxicity, doxorubicin-resistant Jurkat cell line JLD
# Format: cell-based
# Conditions: Homo sapiens, Jurkat; concentration required to give 50% cell kill
pIC50: −log10 of the molar value.

[
  {
    "Compound": "COc1cccc2c1ccc1nc3cccc(C(=O)N[C@H](CO)CN(C)C)c3nc12",
    "pIC50": 8.03
  },
  {
    "Compound": "COc1cccc2c1ccc1nc3cccc(C(=O)NC(C)CN(C)C)c3nc12 (stereo not shown)",
    "pIC50": 7.60
  },
  {
    "Compound": "CN(C)CCNC(=O)c1cccc2nc3ccc4cc(O)ccc4c3nc12",
    "pIC50": 6.97
  },
  {
    "Compound": "COc1cccc2c1ccc1nc3cccc(C(=O)N[C@H](C)CN(C)C)c3nc12",
    "pIC50": 7.77
  },
  {
    "Compound": "COc1cccc2c1ccc1nc3cccc(C(=O)NC(CN(C)C)C(C)O)c3nc12 (stereo not shown)",
    "pIC50": 8.14
  },
  {
    "Compound": "COc1cc(C(=O)NCCN(C)C)c2nc3c(ccc4c(OC)cccc43)nc2c1",
    "pIC50": 7.85
  },
  {
    "Compound": "COc1cccc2c1ccc1nc3cccc(C(=O)NCCN(C)C)c3nc12",
    "pIC50": 7.61
  }
]

----------
# Tested on: amsacrine-resistant Jurkat human leukaemia cell line (JLA)
# Test summary: Cytotoxicity, amsacrine-resistant Jurkat cell line JLA
# Assay type: cell-based
# Conditions: concentration required to give 50% cell kill
# Description: The cytotoxicity of the compounds described herein was also measured using the Jurkat human leukaemia cell line (JLC) and also the amsacrine-resistant Jurkat human leukaemia cell line (JLA) and the doxorubicin-resistant Jurkat human leukaemia cell line (JLD). […]
pIC50: −log10 of the molar value.
pIC50 values for the molecules below.

[
  {
    "Molecule": "Br.CN(C)CCNC(=O)c1cccc2nc3ccc4c(O)cccc4c3nc12 [Compound 4, hydrobromide salt]",
    "pIC50": 7.58
  },
  {
    "Molecule": "COc1cccc2c1ccc1nc3cccc(C(=O)NC(C)(CCO)N(C)C)c3nc12 (stereo not shown)",
    "pIC50": 7.80
  },
  {
    "Molecule": "COc1cccc2c1ccc1nc3cccc(C(=O)N[C@@H](CN(C)C)C(C)C)c3nc12",
    "pIC50": 7.74
  },
  {
    "Molecule": "CN(C)CCNc1nc2cc(O)ccc2c2c1C(=O)c1ccccc1-2 [TAS-103, reference compound]",
    "pIC50": 6.52
  }
]
